molecules and their reported TGI
- Tested on: A549 NSCLC
- Measurement Notes: NCI tumour cell line growth inhibition, 48 h

# count of solved cases: 5
[[record]]
molecule = "CC(=O)OC1COC(n2c(O)c(N=Nc3ccc([N+](=O)[O-])cc3)c3cc(Br)c([N+](=O)[O-])cc32)C(OC(C)=O)C1OC(C)=O (stereo not given)"
val = "> 100 µM"

[[record]]
molecule = "COc1ccc2c(c1)O/C(=C\\c1ccc([N+](=O)[O-])o1)C2=O"
val = "8.04 µM"

[[record]]
molecule = "CN(C)CCn1c2c(c3ccccc31)CCc1ccccc1-2"
val = "28.3 µM"

[[record]]
molecule = "CS(=O)(=O)c1nccc(-c2c(-c3cccc(OCc4ccccc4)c3)nc3sccn23)n1"
val = "> 100 µM"

[[record]]
molecule = "COc1ccc(-c2c(-c3cc4c(c(OC)c3OC)OCO4)noc2N)cc1"
val = "> 100 µM"


IN: # get_value(readout='TGI', item= CC(=O)NC1C(O)C(O)C(CO)OC1n1nc(SCc2ccccc2)c(=O)[nH]c1=O (stereo not given) )
OUT: > 100 µM

IN: // same read-out, input: CCOC(=O)CC[C@H](NC(=O)c1ccc(CNc2nc3cc(C(F)(F)F)ccc3nc2C(=O)OCC)cc1)C(=O)OCC
OUT: > 100 µM

* * *

- System: HL-60(TB) leukemia
- Measurement Notes: NCI tumour cell line growth inhibition, 48 h
Measurement Kind: TGI

IN: // lookup TGI | system=HL-60(TB) leukemia | key= CCOC(=O)CC[C@H](NC(=O)c1ccc(CNc2nc3cc(C(F)(F)F)ccc3nc2C(=O)OCC)cc1)C(=O)OCC
OUT: > 100 µM

IN: // same read-out, input: C=CC(C)CCC(C/C=C(\C)CCCC(C)C)C(=C)CCCC(C)C (centres undefined)
OUT: > 100 µM

IN: // same read-out, input: CCOc1cccc2sc(N)nc12
OUT: > 100 µM

IN: // same read-out, input: COc1cc2c(NCCN(C)C)nc3c4cc5c(cc4ccc3c2cc1OC)OCO5
OUT: 9.52 µM

IN: // same read-out, input: Cc1ccc(N/N=C/C2=CC(C)(C)C(C#N)(C#N)C(O)=C2C#N)cc1
OUT: 58.1 µM

* * *

- Test system: HS 578T breast
- Measurement Notes: NCI tumour cell line growth inhibition, 48 h
Measurement Kind: TGI

# count of solved cases: 4
[[record]]
molecule = "O=C1C(=Cc2cccc(Cl)c2)N=C(c2ccccc2)N1n1c(-c2ccccc2)nc2ccccc2c1=O"
test_target = "HS 578T breast"
val = "> 100 µM"

[[record]]
molecule = "CCCCCCCC(=O)SCC/C=C/[C@@H]1CC(=O)NCc2cccc(n2)C2=N[C@@](C)(CS2)C(=O)N[C@@H](C(C)C)C(=O)O1"
test_target = "HS 578T breast"
val = "> 10.1 µM"

[[record]]
molecule = "NNC(=O)CC(=O)Nc1ccccc1Cl"
test_target = "HS 578T breast"
val = "> 100 µM"

[[record]]
molecule = "O=C(CC(O)c1cccnc1)CC(O)c1cccnc1 (stereo not given)"
test_target = "HS 578T breast"
val = "> 100 µM"


Attention now turns to another entry.
IN: # get_value(readout='TGI', item= COc1ccc(C2CC(c3ccc4ccccc4c3)=NN2/C=C2\SC(=S)N(NC(=O)Cc3ccccc3Nc3c(Cl)cccc3Cl)C2=O)cc1 (stereo not given) )
OUT: > 37.6 µM
